Target: T1, FZD10 cysteine-rich domain (CRD), MYC-tagged and GPI-anchored on CHO cells (human, UniProt Q9ULW2 30-156, GPI anchor)
T1 construct: also called FZD10 CRD; CHO-myc-FZDGPI; not shown: MYC tag and GPI anchor signal
T1 sequence: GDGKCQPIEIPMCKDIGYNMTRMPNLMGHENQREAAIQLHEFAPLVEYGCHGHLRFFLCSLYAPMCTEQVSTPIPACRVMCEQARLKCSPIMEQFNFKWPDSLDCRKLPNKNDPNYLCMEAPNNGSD
Assay: flow cytometry, CHO-CRD cells;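 note: flow cytometry of Fab binding to CHO cells overexpressing a Frizzled CRD, with binding defined as median fluorescence over twice that of CHO cells lacking any Frizzled CRD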
Below, each of the binders is paired with its reported median fluorescence value.
Please give only the number in your answer, with no unit.

Recorded results for 2 binders are shown here.
{"BINDER": "Fab-2934 (Fab, V domains shown, Fab; also called Fv-2934) VH: EVQLVESGGGLVQPGGSLRLSCAASGFNISYSYMHWVRQAPGKGLEWVASIYSSSGSTSYADSVKGRFTISADTSKNTAYLQMNSLRAEDTAVYYCARGAIDYWGQGTLVTVSS VL: DIQMTQSPSSLSASVGDRVTITCRASQSVSSAVAWYQQKPGKAPKLLIYSASSLYSGVPSRFSGSRSGTDFTLTISSLQPEDFATYYCQQWYHYGLITFGQGTKVEIK", "median fluorescence": 2.67}
{"BINDER": "Fab-2926 (Fab, V domains shown, Fab; also called Fv-2926) VH: EVQLVESGGGLVQPGGSLRLSCAASGFNIYSSYMHWVRQAPGKGLEWVASIYPSSSSTSYADSVKGRFTISADTSKNTAYLQMNSLRAEDTAVYYCARGGLDYWGQGTLVTVSS VL: DIQMTQSPSSLSASVGDRVTITCRASQSVSSAVAWYQQKPGKAPKLLIYSASSLYSGVPSRFSGSRSGTDFTLTISSLQPEDFATYYCQQWYHGGSLFTFGQGTKVEIK", "median fluorescence": 2.92}

From here, focus on the item given below.
Field median fluorescence (entry Fab-2920 (Fab, V domains shown, Fab) VH: EVQLVESGGGLVQPGGSLRLSCAASGFNISYYYIHWVRQAPGKGLEWVASIYPSSGSTSYADSVKGRFTISADTSKNTAYLQMNSLRAEDTAVYYCARGGMDYWGQGTLVTVSS VL: DIQMTQSPSSLSASVGDRVTITCRASQSVSSAVAWYQQKPGKAPKLLIYSASSLYSGVPSRFSGSRSGTDFTLTISSLQPEDFATYYCQQWFAGALITFGQGTKVEIK ) reads 2.94
